Source listed as patent US20210395394A1.

target: Pan-species-specific antigen Plasmodium Lactate DeHydrogenase (Pan-PLDH) protein; test: indirect ELISA at four coating concentrations, KD calculated from half-maximal OD
Measured Quantity: Kd (pM)
One number for each entry, in pM.

Some binders with known Kd results, for comparison:
- Mutation 1-36 (antibody, mouse IgG2b, kappa, V domains shown) VH: QVQLQQPGAELVRPGASVKLSCKASGTSFTNYWMNWVKQRPGQGLEWIGMIHPSDSETRINQKFKDKATLTVDKSSSTAYMQLSSLTAEDSAVYYCAKSGDFYTSYFDYWGQGTTLTVSS VL: DIQLTQSPASLSASVGETVTITCRGSGNLHNYLAWYQQKQGKSPQLLVYNAKTVADGVPSRFSGSGSGTQYSLKINSLQPEDFGSYYCQSFWSTYTFGGGTKLEIKR: 518
- WT 1-5 (antibody, mouse IgG2b, kappa, V domains shown) VH: QVQLQQPGAELVRPGASVKLSCKASGYSFTNYFMNWVKQRPGQGLEWIGMINPSESETRVNQKFKDKATLTVDKSSSTAYMQLSSLTAEDSAVYYCAKSGEFYTTYWDYWGQGTTLTVSS VL: DIQLTQSPASLSASVGETVTITCRGTGNIHNYIAWYQQKQGKSPQLLVYNARTLADGVPSRFSGSGSGTQYSLKINSLQPEDFGSYYCQSFWSSYTFGGGTKLEIKR: 516
- Mutation 1-13 (antibody, mouse IgG2b, kappa, V domains shown) VH: QVQLQQPGAELVRPGASVKLSCKASGTSFTNYWMNWVKQRPGQGLEWIGMIHPSDSETRLNQKFKDKATLTVDKSSSTAYMQLSSLTAEDSAVYYCAKSGDFYTYYFDYWGQGTTLTVSS VL: DIQLTQSPASLSASVGETVTITCRGTGNLHNYLAWYQQKQGKSPQLLVYNAKTLADGVPSRFSGSGSGTQYSLKINSLQPEDFGSYYCQTFWSTYTFGGGTKLEIKR: 531

For each of the items listed, what is its Kd?
1. Mutation 1-55 (antibody, mouse IgG2b, kappa, V domains shown) VH: QVQLQQPGAELVRPGASVKLSCKASGYSFTNYWMNWVKQRPGQGLEWIGMIHPSDSETRLNQKFKDKATLTVDKSSSTAYMQLSSLTAEDSAVYYCARSGDFYTTYFDYWGQGTTLTVSS VL: DIQLTQSPASLSASVGETVTITCRGSGNIHNYLAWYQQKQGKSPQLLVYNAKTIADGVPSRFSGSGSGTQYSLKINSLQPEDFGSYYCQYFWSTYTFGGGTKLEIKR
2. Mutation 1-38 (antibody, mouse IgG2b, kappa, V domains shown) VH: QVQLQQPGAELVRPGASVKLSCKASGYSFTNYWMNWVKQRPGQGLEWIGMIHPSDSETRVNQKFKDKATLTVDKSSSTAYMQLSSLTAEDSAVYYCAKSGDFYTTYFDYWGQGTTLTVSS VL: DIQLTQSPASLSASVGETVTITCRGSGNVHNYLAWYQQKQGKSPQLLVYNAKTLADGVPSRFSGSGSGTQYSLKINSLQPEDFGSYYCQTFWSTYTFGGGTKLEIKR

Response:
1. 559
2. 613
